organism: Homo sapiens; experiment: Selectivity ratio of pKi for human adrenergic alpha-1d receptor to pKi for human adrenergic alpha-1b receptor
We begin with a simple list: items and their reported Selectivity ratio.
# respond with the number and nothing more

Previously resolved entries follow.
COc1cc2nc(N3CCN(C(=O)c4ccccn4)[C@H]4CCCC[C@H]43)nc(N)c2cc1OC 5
COc1cc2nc(N3CCN(C(=O)c4ccc(C(C)=O)o4)[C@H]4CCCC[C@H]43)nc(N)c2cc1OC 5

Note: attention shifts to another entry.
Query: Selectivity ratio; subject: `COc1cc2nc(N3CCN(C(=O)c4ccc(Br)o4)[C@H]4CCCC[C@H]43)nc(N)c2cc1OC` 5
